- assay.system: Ba/F3-TEL-FGFR3 cells (Homo sapiens, UniProt P22607)
- Construct: fused on or other part: The N-terminal oligomerising part of TEL (ETV6) is fused before the intracellular kinase part of FGFR3; P41212 (Transcription factor ETV6)
- Sequence (P22607 whole entry, change not shown, the tested form may be a part): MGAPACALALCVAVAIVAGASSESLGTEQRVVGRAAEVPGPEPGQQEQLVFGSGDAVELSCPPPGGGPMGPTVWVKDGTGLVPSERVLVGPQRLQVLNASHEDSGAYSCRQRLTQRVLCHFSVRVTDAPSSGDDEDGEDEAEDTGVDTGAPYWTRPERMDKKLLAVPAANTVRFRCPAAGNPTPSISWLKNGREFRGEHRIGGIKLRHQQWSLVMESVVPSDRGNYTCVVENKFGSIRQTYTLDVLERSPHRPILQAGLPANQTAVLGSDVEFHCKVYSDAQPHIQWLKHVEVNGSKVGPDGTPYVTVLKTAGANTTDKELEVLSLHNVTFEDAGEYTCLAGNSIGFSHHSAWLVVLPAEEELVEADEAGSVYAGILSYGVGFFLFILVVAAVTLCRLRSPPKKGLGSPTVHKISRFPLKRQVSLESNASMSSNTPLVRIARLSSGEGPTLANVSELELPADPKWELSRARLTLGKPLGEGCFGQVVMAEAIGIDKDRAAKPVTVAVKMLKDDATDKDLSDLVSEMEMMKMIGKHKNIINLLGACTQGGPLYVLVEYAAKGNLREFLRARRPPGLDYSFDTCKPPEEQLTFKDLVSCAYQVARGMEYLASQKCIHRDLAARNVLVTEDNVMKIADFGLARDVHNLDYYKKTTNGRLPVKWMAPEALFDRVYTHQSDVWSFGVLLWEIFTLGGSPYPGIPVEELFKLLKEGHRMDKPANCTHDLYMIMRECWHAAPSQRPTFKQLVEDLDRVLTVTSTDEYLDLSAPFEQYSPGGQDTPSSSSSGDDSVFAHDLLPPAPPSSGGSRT
- protocol.summary: FGFR3 cellular assay: proliferation of transformed Ba/F3-TEL-FGFR3 cells (AlamarBlue)
- Assay type: cell-based
- condition.parameters: 48 hours incubation, class symbols
- Protocol: Compounds of the invention are tested for their ability to inhibit transformed Ba/F3-TEL-FGFR3 cells proliferation, which is dependent on FGFR3 cellular kinase activity. […] After additional four hours of incubation in a 37° C. cell culture incubator, fluorescence signals from reduced AlamarBlue® (Excitation at 530 nm, Emission at 580 nm) are quantified on Analyst GT (Molecular Devices Corp.). […]
endpoint: GI50

Some solved cases for reference:
[
  {
    "molecule": "COc1cc(C(N)=O)c(Cl)c(Nc2ncncc2-c2cc(Nc3ccc(CN4CCOCC4)cn3)ncn2)c1Cl [Compound 26]",
    "GI50": "250 to 500 nM"
  },
  {
    "molecule": "COc1cc(OC)c(Br)c(Nc2ncncc2-c2cc(Nc3cc(CN4CCOCC4)ccn3)ncn2)c1Cl [Compound 51]",
    "GI50": "< 100 nM"
  },
  {
    "molecule": "COc1cc(OC)c(Cl)c(Nc2ncncc2-c2cc(NC(=O)NCCN3CCN(C)CC3)ncn2)c1Cl [Compound 8]",
    "GI50": "100 to 250 nM"
  },
  {
    "molecule": "COc1cc(OC)c(Cl)c(Nc2nccnc2-c2cc(Nc3ccc(CN4CCOCC4)cn3)ncn2)c1Cl [Compound 94]",
    "GI50": "< 100 nM"
  }
]

Data request, read-out GI50, for COc1cc(Nc2ncncc2-c2cc(Nc3cc(CN4CCN(C)CC4)ccn3)ncn2)c(Cl)c(OC)c1 [Compound 39]
100 to 250 nM

Can you handle COc1cc(OC)c(Cl)c(Nc2ncncc2-c2cc(Nc3ccc(CN4CCN(CCO)CC4)cn3)ncn2)c1C [Compound 76] next?
< 100 nM

What do you get for COc1cc(OC)c(Cl)c(Nc2ncncc2-c2cc(Nc3ccc(CN4CCN(C(=O)CO)CC4)cn3)ncn2)c1Cl [Compound 87] ?
< 100 nM

Input COc1cc(Nc2ncncc2-c2cc(Nc3ccc(CN4CCOCC4)cn3)ncn2)c(F)c(OC)c1 [Compound 68]
< 100 nM

For COc1cc(OC)c(Cl)c(Nc2nccnc2-c2cc(Nc3ccc(CN4CCN(CCO)CC4)cn3)ncn2)c1Cl [Compound 100] then?
< 100 nM

Quick one: COc1cc(Nc2ncncc2-c2cc(Nc3ccc(CN4CCN(C(=O)CO)CC4)cn3)ncn2)c(F)c(OC)c1 [Compound 90]
< 100 nM

One more molecule: COc1cc(OC)c(Cl)c(Nc2nccnc2-c2cc(Nc3ccc(CN4CCN(C(=O)CO)CC4)cn3)ncn2)c1Cl [Compound 101]
< 100 nM

----------
Below: a set of entries, each annotated with reported GI50.
- assay.system: Ba/F3-TEL-FGFR3 cells (Homo sapiens)
- Construct: fused on or other part: The N-terminal oligomerising part of TEL (ETV6) is fused before the intracellular kinase part of FGFR3; P41212 (Transcription factor ETV6)
- protocol.summary: FGFR3 cellular assay: proliferation of transformed Ba/F3-TEL-FGFR3 cells (AlamarBlue)
- Type: cell-based
- condition.parameters: 48 hours incubation, class symbols

[
  {
    "compound": "CCN1CCN(c2ccc(Nc3cc(-c4cncnc4Nc4c(Cl)c(OC)cc(C(=O)OC)c4Cl)ncn3)nc2)CC1 [Compound 41]",
    "GI50": "< 100 nM"
  },
  {
    "compound": "COc1cc(Nc2ncncc2-c2cc(Nc3ccc(C(C)O)cn3)ncn2)c(F)c(OC)c1 (stereo not shown) [Compound 83]",
    "GI50": "< 100 nM"
  },
  {
    "compound": "CCNC(=O)c1cc(OC)c(Cl)c(Nc2ncncc2-c2cc(Nc3ccc(CCN4CCOCC4)cn3)ncn2)c1Cl [Compound 32]",
    "GI50": "100 to 250 nM"
  },
  {
    "compound": "CCNC(=O)c1cc(OC)c(Cl)c(Nc2ncncc2-c2cc(Nc3ccc(CN4CCCC4)cn3)ncn2)c1Cl [Compound 35]",
    "GI50": "< 100 nM"
  },
  {
    "compound": "CCN1CCN(Cc2ccc(NC(=O)c3cc(OC)c(Cl)c(Nc4ncncc4-c4cc(Nc5ccc(CN6CCOCC6)cn5)ncn4)c3Cl)cc2C(F)(F)F)CC1 [Compound 93]",
    "GI50": "< 100 nM"
  }
]

For the compound shown here, COc1cc(OC)c(Cl)c(Nc2ncncc2-c2cc(Nc3ccc(CCN4CCOCC4)cn3)ncn2)c1C [Compound 86] , give the reported GI50.
250 to 500 nM

Likewise for COc1cc(OC)c(Cl)c(Nc2ncncc2-c2cc(Nc3cc(CN4CCOCC4)ccn3)ncn2)c1Cl [Compound 5] ?
< 100 nM

----------
- assay.system: Ba/F3-TEL-FGFR3 cells (Homo sapiens, UniProt P22607)
- Construct: fused on or other part: The N-terminal oligomerising part of TEL (ETV6) is fused before the intracellular kinase part of FGFR3; P41212 (Transcription factor ETV6)
- protocol.summary: FGFR3 cellular assay: proliferation of transformed Ba/F3-TEL-FGFR3 cells (AlamarBlue)
- Format: cell-based
- condition.parameters: 48 hours incubation, class symbols
Item-by-item account of GI50

Please report the recorded GI50 for COc1cc(OC)c(Cl)c(Nc2ncncc2-c2cc(Nc3cc(CN4CCOCC4)ccn3)ncn2)c1F [Compound 46] .
< 100 nM

Then CCNC(=O)c1cc(OC)c(Cl)c(Nc2ncncc2-c2cc(Nc3ccc(CN(C)C)cn3)ncn2)c1Cl [Compound 31] ?
< 100 nM

Next up: COc1cc(OC)c(Cl)c(Nc2nccnc2-c2cc(Nc3ccc(C(C)O)cn3)ncn2)c1Cl (stereo not drawn) [Compound 102]
< 100 nM

Same again, this time with COc1cc(OC)c(Cl)c(Nc2ncncc2-c2cc(Nc3ccc(CN4CCOCC4)cn3)ncn2)c1F [Compound 44]
< 100 nM

How about COC(=O)c1cc(OC)c(Cl)c(Nc2ncncc2-c2cc(Nc3ccc(CN4CCOCC4)cn3)ncn2)c1Cl [Compound 27] ?
< 100 nM

Further, for COC(=O)c1cc(OC)c(Cl)c(Nc2ncncc2-c2cc(N)ncn2)c1Cl [Compound 23] ?
250 to 500 nM

Let us now turn to COc1cc(OC)c(Cl)c(Nc2ncncc2-c2cc(Nc3cncc(CN4CCOCC4)c3)ncn2)c1Cl [Compound 21]
250 to 500 nM

Thanks! And CCN1CCN(Cc2ccc(Nc3cc(-c4cncnc4Nc4cc(OC)cc(OC)c4Cl)ncn3)nc2)CC1 [Compound 38] ?
100 to 250 nM

What do we get for COc1cc(Nc2ncncc2-c2cc(Nc3ccc(CCN4CCOCC4)cn3)ncn2)c(F)c(OC)c1 [Compound 84] ?
< 100 nM

Then this molecule: COc1cc(C(=O)NC2CC2)c(Cl)c(Nc2ncncc2-c2cc(Nc3ccc(CN4CCOCC4)cn3)ncn2)c1Cl [Compound 57]
< 100 nM

What about COc1cc(OC)c(Cl)c(Nc2ncncc2-c2cc(Nc3ccc(C(C)O)cn3)ncn2)c1C (stereo not drawn) [Compound 81] ?
< 100 nM

Please answer likewise for COc1cc(OC)c(Cl)c(Nc2ncncc2-c2cc(NCCN3CCN(C)CC3)ncn2)c1Cl [Compound 14]
250 to 500 nM

Repeat with COc1cc(OC)c(Cl)c(Nc2ncncc2-c2cc(Nc3ccc(CCN4CCOCC4)cn3)ncn2)c1Cl [Compound 18]
< 100 nM

Next record, please: COc1cc(OC)c(Cl)c(Nc2ncncc2-c2cc(Nc3ccc(CN4CCN(CCO)CC4)cn3)ncn2)c1F [Compound 73]
< 100 nM

Another molecule to check: COc1cc(OC)c(Cl)c(Nc2nccnc2-c2cc(Nc3ccc(CN4CCOCC4)cn3)ncn2)c1F [Compound 95]
< 100 nM
